assay_system: T1, full-length human APLNR (human, UniProt P35414 1-380)
T1 construct: Stably expressed on HEK293/CRE-luc/hAPLNR cells (FACS, CRE-luc assays) and on CHO/hAPLNR cells (pERK assays); also called hAPLNR; apelin receptor
T1 sequence: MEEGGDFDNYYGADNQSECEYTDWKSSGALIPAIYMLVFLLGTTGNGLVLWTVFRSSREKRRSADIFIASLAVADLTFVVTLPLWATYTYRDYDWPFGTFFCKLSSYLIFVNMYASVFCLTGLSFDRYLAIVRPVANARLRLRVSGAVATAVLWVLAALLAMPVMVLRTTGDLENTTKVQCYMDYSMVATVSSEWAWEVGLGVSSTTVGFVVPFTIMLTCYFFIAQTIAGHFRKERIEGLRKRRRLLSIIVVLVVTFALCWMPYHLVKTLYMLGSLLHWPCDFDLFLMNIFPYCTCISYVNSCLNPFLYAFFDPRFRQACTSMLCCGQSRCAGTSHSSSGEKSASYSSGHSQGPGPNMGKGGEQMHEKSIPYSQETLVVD
protocol_summary: FACS, 10 µg/mL antibody, HEK293/CRE-luc/hAPLNR cells
parameter: Binding Ratio of Geom. Mean to Unstained Cells (fold)

[
  {
    "binder": "H2aM9227N (antibody, V domains shown, Human variable domains, mouse IgG2a Fc) VH: EVQLVESGGGLVQPGGSLRLSCAASGFTFSSFWMSWVRQVPGKGLEWVANIKQDGSEKYYVDSVKGRFTISRDNAKNSLYLQMNSLRAEDTAVYYCARDRFGYSFYDKGVRYYYGMDVWGQGTTVTVSS VL: DIQMTQSPSSLSVSVGDRVTITCRASQGIRNDLGWYQQKPGKAPKRLIYATSSLQSGVPSRFSGSGSGTEFTLTISGLQPEDFATYYCLQHNSYPRTFGQGTKVEIK",
    "unit_string": "fold",
    "endpoint_result": 4100
  },
  {
    "binder": "H2aM9232N (antibody, V domains shown, Human variable domains, mouse IgG2a Fc) VH: QVKLVESGGGVVQPGRSLRLSCAASGFTFSNYVIHWVRQAPGKGLEWVAVIWYDGSNKYYADSVKGRFTISRDNSKNTLYLQMNSLRAEDTAVYYCARDRVVRGVDYYYYYGLDVWGQGTSVTVSS VL: EIVMTQSPATLSVSPGERATLSCRASQSVRSNLAWYQQKPGQAPRLLIYGASSRATGIPARFSGTGSGTEFTLTISSLQSDDFAVYYCQQYNKWPRTFGQGTKVEIK",
    "unit_string": "fold",
    "endpoint_result": 2860
  },
  {
    "binder": "H2aM9228N (antibody, V domains shown, Human variable domains, mouse IgG2a Fc) VH: EVQLVESGGGLVQPGGSLRLSCAASGFTFSNYWMSWVRLAPGKGLEWVANIKQDGSERYYVGSVKGRFTISRGDAKNSLYLQMNSLRAEDTAVYYCARDRFGYSAFDKGVRYYYGMDVWGQGTTVTVSS VL: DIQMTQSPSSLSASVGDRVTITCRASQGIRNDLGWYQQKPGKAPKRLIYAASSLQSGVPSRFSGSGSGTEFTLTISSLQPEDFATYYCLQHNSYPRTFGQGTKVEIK",
    "unit_string": "fold",
    "endpoint_result": 1490
  },
  {
    "binder": "H1M9207N (antibody, V domains shown, Human variable domains, mouse IgG1 Fc (H1M prefix)) VH: EVQLVESGGGLAQPGGSLRLSCAASGFTFSNYWMSWVRQAPGKGLEWVANIKQDGSEKYYLESVKGRFTISRDNAKNLLYLQMNSLRAEDTAVFYCARPGLLRFLEPGRRYYSGMNVWGQGTTVTVSS VL: DIQLTQSPSFLSASVGDRVTITCWASQGIRSYLAWYQQKPGKAPKLLIYAASTLQSGVPSRFSGSGSGTEFTLTISSLQPEDFATYYCQQFNSYPWTFGQGTKVEIK",
    "unit_string": "fold",
    "endpoint_result": 2180
  }
]
